Kindly supply the reported z-score values for the records listed here.
target: Genome polyprotein (Poliovirus type 1 (strain Mahoney)); experiment: poliovirus RdRp elongation inhibitors, primary screen, biochemical, fluorescence polarization, total intensity (AID 588519); conditions: poliovirus polymerase elongation, measured here: FP z-score, stronger effect = lower value
Screen size: about 150,000 compounds; about 1,000 (0.67%) were called active. This excerpt belongs to a sample that is enriched for actives.
Answers are plain numbers.

Worked examples, 5 compounds total:
O=C(COC(=O)C1CCC(=O)N1)Nc1nc(-c2ccccc2)cs1 (stereo not drawn) = -0.2
Cc1ccc(NC(=O)COc2ccccc2O)cc1C = 0.1
O=C(NNc1ncnc2ccccc12)c1ccncc1 = 0.6
O=C(NN=c1c(=O)c2ccccc2c1=O)c1ccncc1 = -12.6
Cc1cc(SCc2ccccc2)nc2ccccc12 = 0.4

// for each compound in input: emit z-score
1. CC(C)/C=N/NC(=O)c1ccccc1
2. O=C(Sc1ccc(Oc2ccc(SC(=O)c3ccco3)cc2)cc1)c1ccco1
3. CC[N+](CC)=c1scc(-c2ccc(Cl)cc2)s1

Result:
1: 0.3; 2: -11.5; 3: -0.2

----------
Kindly supply the reported % elongation values for the records listed here.
biological target: Genome polyprotein (Poliovirus type 1 (strain Mahoney)) (UniProt P03300); experiment: poliovirus RdRp elongation inhibitors, primary screen, biochemical, fluorescence polarization, total intensity (AID 588519); settings: poliovirus polymerase elongation, measured here: total intensity read-out, stronger effect = lower value, compound at 16.7 µg/mL
Sequence (P03300 1749-2209 limits assumed): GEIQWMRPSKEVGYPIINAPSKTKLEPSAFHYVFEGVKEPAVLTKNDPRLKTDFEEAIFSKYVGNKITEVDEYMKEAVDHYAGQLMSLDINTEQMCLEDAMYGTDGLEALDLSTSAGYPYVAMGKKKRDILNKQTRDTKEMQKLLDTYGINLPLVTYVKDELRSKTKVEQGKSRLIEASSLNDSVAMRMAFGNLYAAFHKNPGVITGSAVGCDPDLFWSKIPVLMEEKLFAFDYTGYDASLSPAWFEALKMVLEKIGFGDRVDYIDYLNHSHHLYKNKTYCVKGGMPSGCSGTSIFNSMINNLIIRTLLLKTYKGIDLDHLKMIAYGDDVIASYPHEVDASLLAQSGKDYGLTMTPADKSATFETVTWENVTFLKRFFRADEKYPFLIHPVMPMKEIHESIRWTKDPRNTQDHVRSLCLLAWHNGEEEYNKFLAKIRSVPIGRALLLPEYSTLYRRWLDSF
The campaign covered roughly 150,000 compounds. About 1,000 (0.67%) were called active. The sample holds actives, similar compounds and a random draw of the others, so the mix is not that of the screen.
Give bare numbers, in %.

Worked examples, 2 compounds total:
O=C(CN1CCN(S(=O)(=O)c2ccc3[nH]c(=O)[nH]c3c2)CC1)N1CCCCCC1 = 93
O=C(CCC(=O)c1ccccc1)c1ccccc1 = 102

// for each compound in input: emit % elongation
1. CCOC(=O)c1c(N)sc2c1CC(C)(C)OC2
2. Cc1cc(C)c2nc3nc(C)cc(C)c3c(N)c2c1
3. O=C(CSc1ccccc1)c1ccccc1
4. CCCCOC(=O)Nc1nccs1
5. N#CCCn1c(SCC(=O)NCCSc2ccc(Cl)cc2)nc2ccccc21
6. CCn1c(=O)cc(O)c2ccccc21
7. NS(=O)(=O)c1ccc(CCN(Cc2nc3ccsc3c(=O)[nH]2)Cc2nc3ccsc3c(=O)[nH]2)cc1

Result:
106
76
75
99
104
123
110

// for each compound in input: emit % elongation
1. CCn1c2ccccc2c2cc(CN3CCN(Cc4cccc(Cl)c4)CC3)ccc21
2. C=CCN1CCN(C(c2ccc(C)cc2)c2nnnn2C2CCCC2)CC1 (stereo unspecified)
3. N#Cc1ccc(COC(=O)Cc2noc3ccccc23)cc1
4. O=C(O)c1ccc2nc[nH]c2c1

Result:
1: 108; 2: 102; 3: 104; 4: 108

----------
target: Genome polyprotein (Poliovirus type 1 (strain Mahoney)); test: poliovirus RdRp elongation inhibitors, primary screen, biochemical, fluorescence polarization, total intensity (AID 588519); conditions: poliovirus polymerase elongation, measured here: total intensity read-out, stronger effect = lower value, compound at 16.7 µg/mL
The whole screen tested about 150,000 compounds, of which about 1,000 (0.67%) were called active. Many of the other results were omitted from the sample, so actives are more common in it than they were.
reported property: % elongation (%)
Numbers only, in %.

Worked examples, 2 compounds total:
COC(=O)C1=CN(CCc2ccccc2)C=C(C(=O)OC)C1C(=O)OC = 108
Nc1nnc(-c2ccc(Cn3c(-c4cncs4)nc4ccccc43)cc2)s1 = 75

Query compound follows.
Reported % elongation of `O=C(O)CCCN1C(=O)c2ccccc2Sc2ncccc21` : 105
